Assay: Cytotoxicity, MTT assay on RAW 264.7 macrophages
Type: cell-based
Conditions: mouse, Statistical Analyses S1, unrounded mean of CC50 in RAW cells, unit inferred, read-out: CC50 original values, x.1 (Mean)
Consider the following compounds and their measured CC50 at 48 h readings.
endpoint_label: CC50 at 48 h (µM)

1) CSc1ccc(C2[C@]3(C(=O)N(c4ccccc4)N=C3C)[C@@]23C(=O)N(c2ccccc2)N=C3C)cc1 (relative stereo)
9.3
2) CC1=NN(c2ccccc2)C(=O)[C@@]12C(c1ccc(C(F)(F)F)cc1)[C@@]21C(=O)N(c2ccccc2)N=C1C (relative stereo)
6.48
3) CC1=NN(c2ccccc2)C(=O)[C@@]12C(c1cccc(F)c1)[C@@]21C(=O)N(c2ccccc2)N=C1C (relative stereo)
2.75
4) COC(=O)c1ccc(C2[C@@]3(C(=O)N(c4ccccc4)N=C3C)[C@]23C(=O)N(c2ccccc2)N=C3C)cc1 (relative stereo)
4.01
5) COc1ccccc1C1[C@@]2(C(=O)N(c3ccccc3)N=C2C)[C@]12C(=O)N(c1ccccc1)N=C2C (relative stereo)
12.8
6) CC1=NN(c2ccccc2)C(=O)[C@@]12C(c1cccc([N+](=O)[O-])c1)[C@@]21C(=O)N(c2ccccc2)N=C1C (relative stereo)
3.92
7) COc1ccc(C2[C@@]3(C(=O)N(c4ccccc4)N=C3C)[C@]23C(=O)N(c2ccccc2)N=C3C)cc1 (relative stereo)
7.28
8) CC1=NN(c2ccccc2)C(=O)[C@@]12C(c1ccc(OC(F)(F)F)cc1)[C@@]21C(=O)N(c2ccccc2)N=C1C (relative stereo)
8.63
9) CC1=NN(c2ccccc2)C(=O)[C@@]12C(c1ccccc1)[C@@]21C(=O)N(c2ccccc2)N=C1C (relative stereo)
3.44
10) CC1=NN(c2ccccc2)C(=O)[C@@]12C(c1ccccc1[N+](=O)[O-])[C@@]21C(=O)N(c2ccccc2)N=C1C (relative stereo)
2.26
11) CC1=NN(c2ccccc2)C(=O)[C@@]12C(c1ccc([N+](=O)[O-])cc1)[C@@]21C(=O)N(c2ccccc2)N=C1C (relative stereo)
3.31
12) CC1=NN(c2ccccc2)C(=O)[C@@]12C(c1ccc(F)cc1)[C@@]21C(=O)N(c2ccccc2)N=C1C (relative stereo)
3.55

* * *

Consider the following molecules and their measured IC50 readings.
Test system: S. cerevisiae (W303 background)
Assay: Fungicidal activity (growth, OD600) on S. cerevisiae
Format: cell-based, Saccharomyces cerevisiae
Details: Saccharomyces cerevisiae; 24 h, OD600, concentrations 2.6 to 3000 µM; unit inferred; NA = no activity; read-out: Inhibitory activity against S. cerevisiae W303 (IC50)
endpoint_label: IC50 (µM)

1) CC1=NN(c2ccccc2)C(=O)[C@@]12C(c1ccc(C(F)(F)F)cc1)[C@@]21C(=O)N(c2ccccc2)N=C1C (relative stereo) [4r]
1270
2) CC1=NN(c2ccccc2)C(=O)[C@@]12C(c1ccc(OC(F)(F)F)cc1)[C@@]21C(=O)N(c2ccccc2)N=C1C (relative stereo) [4s]
789
3) CC1=NN(c2ccccc2)C(=O)[C@@]12C(c1ccccc1)[C@@]21C(=O)N(c2ccccc2)N=C1C (relative stereo) [4b]
1380
4) COC(=O)c1ccc(C2[C@@]3(C(=O)N(c4ccccc4)N=C3C)[C@]23C(=O)N(c2ccccc2)N=C3C)cc1 (relative stereo) [4q]
1090

meta.source: paper PMC8398714
